Taken from patent US10562848B2.

# target under test: OX40-OX40L (Homo sapiens, UniProt P23510+P43489)
# Sequence (P43489 29-214 limits assumed): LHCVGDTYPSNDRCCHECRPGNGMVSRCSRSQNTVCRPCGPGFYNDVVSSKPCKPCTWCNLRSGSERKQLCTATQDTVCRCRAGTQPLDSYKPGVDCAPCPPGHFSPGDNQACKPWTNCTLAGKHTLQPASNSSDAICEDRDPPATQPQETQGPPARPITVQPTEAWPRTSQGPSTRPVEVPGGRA
# Sequence (P23510 51-183 limits assumed): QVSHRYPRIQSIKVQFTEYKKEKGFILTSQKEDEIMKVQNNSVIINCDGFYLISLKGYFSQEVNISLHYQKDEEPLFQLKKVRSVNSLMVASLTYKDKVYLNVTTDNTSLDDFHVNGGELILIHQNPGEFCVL
# protocol: Cell-free ELISA-type OX40 binding inhibition assay
# setup conditions: Table 2
pIC50: −log10 of the molar value.
The threshold is inclusive: pIC50 of exactly 5 counts as T; values below receive F.

# compound, target under test, qualitative label
rows = [
    ("COC(=O)c1ccc(C(=O)Nc2ccc(-c3ccc(C(=O)Nc4cccc5cccc(S(=O)(=O)O)c45)cc3)cc2)cc1 [Compound 21045]", "OX40-OX40L (Homo sapiens, UniProt P23510+P43489)", "F"),
    ("O=C(Nc1ccc(-c2ccc(C(=O)Nc3cccc4cccc(S(=O)(=O)O)c34)cc2)cc1)c1ccc([N+](=O)[O-])cc1 [Compound 21041]", "OX40-OX40L (Homo sapiens, UniProt P23510+P43489)", "F"),
    ("O=C(Nc1ccc(-c2ccc(C(=O)Nc3ccc(C(=O)O)c4ccccc34)cc2)cc1)c1ccc([N+](=O)[O-])cc1 [Compound 25441]", "OX40-OX40L (Homo sapiens, UniProt P23510+P43489)", "T"),
    ("O=C(Nc1ccc(-c2ccc(C(=O)Nc3ccc(S(=O)(=O)O)c4ccccc34)cc2)cc1)c1ccc([N+](=O)[O-])cc1 [Compound 25041]", "OX40-OX40L (Homo sapiens, UniProt P23510+P43489)", "T"),
    ("O=C(Nc1ccc(-c2ccc(C(=O)Nc3cccc4cccc(S(=O)(=O)O)c34)cc2)cc1)c1ccc2[nH]nnc2c1 [Compound 21080]", "OX40-OX40L (Homo sapiens, UniProt P23510+P43489)", "F"),
    ("COC(=O)c1cccc2c(NC(=O)c3ccc(-c4ccc(NC(=O)c5ccc([N+](=O)[O-])cc5)cc4)cc3)cccc12 [Compound 24541]", "OX40-OX40L (Homo sapiens, UniProt P23510+P43489)", "F"),
]
